Listed below: IC50 values for each entry.
biological target: kappa opioid receptor (OPRK1) (Homo sapiens (Human)); assay: OPRK1 antagonist assay (b-arrestin-2-TEV / b-lactamase reporter, EC80 U-50488 challenge); format: cell-based; details: OPRK1 antagonist assay vs EC80 U-50488
# output: bare number, implied unit nM

Look over these answered cases.
Molecule	IC50 [nM]
COC1CN(c2nc3c(C)cc(C)cc3cc2-c2nc(C)no2)CCC1NCC(C)C (stereo not drawn)	8
Cc1ccc2nc(N3CCC(NCC(C)C)CC3)c(-c3ccc(C)nn3)cc2c1	324
Cc1ccc(-c2nc(C)no2)c(N2CCC(NC3CCCCC3)C(CO)C2)n1 (stereo not drawn)	31

So, Cc1ccc2nc(N3CCC(NC4CCCCCC4)CC3)c(-c3nc(C)no3)cc2c1 ? Its IC50 was 2

====

molecular target: kappa opioid receptor (OPRK1) (Homo sapiens (Human), UniProt P41145); experiment: OPRK1 antagonist assay (b-arrestin-2-TEV / b-lactamase reporter, EC80 U-50488 challenge); conditions: OPRK1 antagonist assay vs EC80 U-50488
Sequence (P41145 whole entry): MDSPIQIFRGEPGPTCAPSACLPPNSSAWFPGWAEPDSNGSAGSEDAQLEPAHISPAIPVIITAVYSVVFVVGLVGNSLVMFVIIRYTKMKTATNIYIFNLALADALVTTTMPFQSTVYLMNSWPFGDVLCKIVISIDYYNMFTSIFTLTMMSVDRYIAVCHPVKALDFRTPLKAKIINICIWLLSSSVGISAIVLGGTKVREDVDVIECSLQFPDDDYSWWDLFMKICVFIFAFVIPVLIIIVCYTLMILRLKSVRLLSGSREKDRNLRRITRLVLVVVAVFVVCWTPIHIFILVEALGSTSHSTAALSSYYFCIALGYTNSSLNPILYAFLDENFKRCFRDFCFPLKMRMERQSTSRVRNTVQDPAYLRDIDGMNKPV
Assign labels as follows, please: Yes for IC50 below 0.1 µM; No for IC50 equal to or exceeding 0.1 µM.

Compound	Assigned label
Cc1ccc2nc(N3CCC(NC4CCC[C@@H]4O)CC3)c(-c3noc(C)n3)cc2c1 (stereo partly drawn) [compound 418]	Yes
CNC(=O)c1cc2cc(C)ccc2nc1N1CCC(NC2CCCCC2)C(CO)C1 (stereo not drawn) [C89]	No
COC(=O)c1cc(NC(=O)CN)cnc1N1CCC(NC2CCCCC2)CC1 [C41]	No
COC(=O)c1cc(Br)cnc1N1CCC(N(C(C)=O)C2CCCCC2)C(OC(C)=O)C1 (stereo not drawn) [C48]	No
CO[C@@H]1CN(c2ncc(C)cc2-c2nc(C)no2)CC[C@@H]1NC1CCCCC1 [compound 341]	Yes

(Q) Answer whether the compound Cc1cnc(N2CCC(NCC(C)C)CC2)c(-c2cc(C)no2)c1 [compound 381] has IC50 strictly less than 0.1 µM
(A) No

(Q) Take the compound Cc1ccc2nc(N3CCC(NC[C@@H](C)O)CC3)c(-c3noc(C)n3)cc2c1 [compound 423] and say whether its IC50 is less than 0.1 µM.
(A) No

(Q) Decide: IC50 of COC1CN(c2ncc(C)cc2-n2cc(C)cn2)CCC1NC1CCCCC1 (stereo not drawn) [C92] strictly below 0.1 µM?
(A) No

====

target: kappa opioid receptor (OPRK1) (Homo sapiens (Human), UniProt P41145); experiment: OPRK1 antagonist assay (b-arrestin-2-TEV / b-lactamase reporter, EC80 U-50488 challenge); settings: OPRK1 antagonist assay vs EC80 U-50488
pIC50: −log10 of the molar value.
Quick rule: pIC50 of at least 7 means t, below that means f.

Check out these entries, answers already filled in.
Molecule	Assigned label
COC(=O)c1cc(C#N)c(N2CCC(NC3CCCCC3)C(O)C2)nc1C (stereo not drawn) [C57]	f
COC(=O)c1cnc(N2CCC(NC3CCCCC3)CC2)c(NC(C)=O)c1 [C39]	f
COC(=O)c1cc(NC(=O)C(C)(C)C)cnc1N1CCC(NC2CCCCC2)CC1 [C37]	f

(Q) Tell me whether pIC50 is at least 7 here: COC1CN(c2nc3ccc(C)cc3cc2-c2noc(C)n2)CCC1NC1CCCCC1 (stereo not drawn) [compound 314]
(A) t

(Q) Evaluate Cc1ccc2nc(N3CCC(NC4CCCC[C@@H]4O)CC3)c(-c3ccc(C)nn3)cc2c1 (stereo partly drawn) [compound 443] : pIC50 at minimum 7?
(A) t

(Q) Determine whether measured pIC50 meets or exceeds 7 for Cc1cnc(N2CCC(NCC(C)C)CC2)c(-c2nc(C)no2)c1 [compound 393]
(A) f

(Q) Is the recorded value of pIC50 equal to or greater than 7 for this molecule? CO[C@H]1CN(c2nc3ccc(C)cc3cc2-c2ccc(C)nn2)CC[C@H]1NC1CCCCC1 [compound 439]
(A) f

(Q) I'd appreciate it if you could say whether CCC(CC)NC1CCN(c2nc3ccc(C)cc3cc2-c2noc(C)n2)CC1 [compound 416] has pIC50 at least equal to 7.
(A) t

====

target: kappa opioid receptor (OPRK1) (Homo sapiens (Human), UniProt P41145); assay: OPRK1 antagonist assay (b-arrestin-2-TEV / b-lactamase reporter, EC80 U-50488 challenge); settings: OPRK1 antagonist assay vs EC80 U-50488
Measured parameter: IC50 (nM)
Reply numerically in nM, unit not repeated.

Molecule	IC50 [nM]
Cc1nc(-c2c(N3CCC(NCC(C)C)CC3)nc3ccccc3c2C)no1 [compound 448]	226
Cc1cc(-c2noc(C)n2)c(N2CCC(NC3CCCCC3)CC2)nn1 [compound 420]	3
CO[C@H]1CN(c2ncc(C)cc2-c2nc(C)no2)CC[C@H]1N(C1CCCC1)C1CCCC1 [compound 339]	29

Record Cc1cnc(N2CCC(NC3CCOCC3)CC2)c(-c2nc(C3CC3)no2)c1 [compound 396] , field IC50: 2260

====

biological target: kappa opioid receptor (OPRK1) (Homo sapiens (Human), UniProt P41145); experiment: OPRK1 antagonist assay (b-arrestin-2-TEV / b-lactamase reporter, EC80 U-50488 challenge); conditions: OPRK1 antagonist assay vs EC80 U-50488
Measured parameter: pIC50
Entry type: numeric. Quantity: pIC50, the -log10 of concentration in molar units.

# example entries with known answers
Compound	Measured parameter	Recorded value
CO[C@@H]1CN(c2ncc(C)cc2-c2noc(C)n2)CC[C@@H]1NC1CCCCC1	pIC50	6.02
Cc1ccc2nc(N3CCC(NC4CCOC4)CC3)c(-c3ccc(C)nn3)cc2c1 (centres unmarked)	pIC50	6.36

Continue with the compound presented below.
pIC50 for COC1CN(c2ncc(C)cc2-n2ccc(C)n2)CCC1NC1CCCCC1 (centres unmarked) is 8.05

====

Recorded IC50 for the following compounds
target: kappa opioid receptor (OPRK1) (Homo sapiens (Human)); experiment: OPRK1 antagonist assay (b-arrestin-2-TEV / b-lactamase reporter, EC80 U-50488 challenge); details: OPRK1 antagonist assay vs EC80 U-50488
Report as a plain number; the unit nM is understood.

Consider the reported IC50 for these compounds:
Compound	Tested on	Recorded value
CO[C@H]1CN(c2nc(C)ccc2-c2ccc(C)nn2)CC[C@H]1NC1CCCCC1	kappa opioid receptor (OPRK1) (Homo sapiens (Human))	1970
COC(=O)c1cnc(N2CCC(NC3CCCCC3)CC2)c(Br)c1	kappa opioid receptor (OPRK1) (Homo sapiens (Human))	15000
Cc1ccc2nc(N3CCC(NC4CCCCC4O)CC3)c(-c3ccc(C)nn3)cc2c1 (centres unmarked)	kappa opioid receptor (OPRK1) (Homo sapiens (Human))	94
Cc1ccc2nc(N3CCC(NC4CCCC4)CC3)c(-c3noc(C)n3)cc2c1	kappa opioid receptor (OPRK1) (Homo sapiens (Human))	9
CCC(CC)NC1CCN(c2nc3ccc(F)cc3cc2-c2noc(C)n2)CC1	kappa opioid receptor (OPRK1) (Homo sapiens (Human))	248

The compound CO[C@@H]1CN(c2nc(C)ccc2-c2ccc(C)nn2)CC[C@@H]1NC1CCCCC1 showed IC50 equal to 4600

Recorded IC50 (compound CO[C@H]1CN(c2nc3ccccc3nc2-c2nc(C)no2)CC[C@H]1NC1CCCCC1 ): 6.6

====

biological target: kappa opioid receptor (OPRK1) (Homo sapiens (Human), UniProt P41145); test: OPRK1 antagonist assay (b-arrestin-2-TEV / b-lactamase reporter, EC80 U-50488 challenge); conditions: OPRK1 antagonist assay vs EC80 U-50488
Below: a set of entries, each annotated with reported IC50.

These solved cases illustrate the format of a correct answer.
Compound	IC50
CCC(CC)NC1CCN(c2nc3ccccc3c(C)c2-c2noc(C)n2)CC1 [compound 449]	129 nM
CCc1ccc(-c2cc3cc(C)ccc3nc2N2CCC(NC3CCCC[C@@H]3O)CC2)nn1 (stereo partly shown) [compound 454]	783 nM
COC(=O)c1cc(NS(C)(=O)=O)cnc1N1CCC(NC2CCCCC2)CC1 [C30]	> 10000 nM
COC(=O)c1cc(Br)cnc1N1CCC(NCc2ccccc2O)CC1 [C22]	> 10000 nM
CCc1noc(-c2cc3cc(C)ccc3nc2N2CC[C@@H](NC3CCCCC3)[C@H](O)C2)n1 [compound 335]	113 nM
Cc1cnc(N2CCC(NC3CCCCC3)CC2)c(-c2nc(C)no2)c1 [compound 388]	20 nM

// next item, IC50 requested
Record Cc1ccc2nc(N3CCC(NC4CCC4)CC3)c(-c3nc(C)no3)cc2c1 [compound 370] / kappa opioid receptor (OPRK1) (Homo sapiens (Human), UniProt P41145), IC50 recorded as 37 nM

====

# pIC50 per record follows
biological target: kappa opioid receptor (OPRK1) (Homo sapiens (Human)); assay: OPRK1 antagonist assay (b-arrestin-2-TEV / b-lactamase reporter, EC80 U-50488 challenge); settings: OPRK1 antagonist assay vs EC80 U-50488
Friendly reminder that pIC50 comes from taking -log10 of the concentration in mol/L.

Recorded results for 5 molecules are shown here.
Molecule	Tested on	pIC50
Cc1ccc(-c2nc(C)no2)c(N2CCC(NC3CCCCC3)CC2)n1	kappa opioid receptor (OPRK1) (Homo sapiens (Human))	7.05
CO[C@@H]1CN(c2ncc(C)cc2-n2ccc(C)n2)CC[C@@H]1NC1CCCCC1	kappa opioid receptor (OPRK1) (Homo sapiens (Human))	5.94
Cc1cnc(N2CCC(NC3CCOCC3)CC2)c(-c2nc(C)no2)c1	kappa opioid receptor (OPRK1) (Homo sapiens (Human))	6.82
Cc1ccc2nc(N3CCC(NC4(C)CCOCC4)CC3)c(-c3noc(C)n3)cc2c1	kappa opioid receptor (OPRK1) (Homo sapiens (Human))	6.98
COC1CN(c2nc3ccccc3cc2-c2cccnn2)CCC1NC1CCCCC1 (stereo not drawn)	kappa opioid receptor (OPRK1) (Homo sapiens (Human))	7.27

Please look at the following molecule next.
Record Cc1cc(C)c2nc(N3CCC(NC4CCOCC4)CC3)c(-c3nc(C)no3)cc2c1 , field pIC50: 8.00

src = patent US9682966B2
